The origin of these recorded values is ChEMBL document CHEMBL4689842.

test system: Fibroblast; experiment: Multiplex assay against human fibroblast; assay type: toxicity, cell-based; conditions: 24 h, 1 µM, compound concentration 1 uM, replicate 2
quantity: Population Mitotic Cells (%)
# unit: % | format: bare number

Could you please provide reported Population Mitotic Cells (%) for CC(C)(C)c1cnc(CSc2cnc(NC(=O)C3CCNCC3)s2)o1 ? Thanks! 37

Could you please provide reported Population Mitotic Cells (%) for O=C(O)c1ccc2cc(-c3ccc(O)c(C45CC6CC(CC(C6)C4)C5)c3)ccc2c1 ? Thanks! 0

Could you please provide reported Population Mitotic Cells (%) for CCc1cc2c(cc1CC)CC(NC[C@H](O)c1ccc(O)c3[nH]c(=O)ccc13)C2 ? Thanks! 85

Could you please provide reported Population Mitotic Cells (%) for CC(C)N1CCC(C)(C)c2cc(C#Cc3ccc(C(=O)O)cc3)ccc21 ? Thanks! 50

Could you please provide reported Population Mitotic Cells (%) for CNC(=O)c1nn(C)c2c1C(C)(C)Cc1cnc(Nc3ccc(N4CCN(C)CC4)cc3)nc1-2 ? Thanks! 50

Could you please provide reported Population Mitotic Cells (%) for CCCn1c(=O)c2[nH]c(C34CC5CC(CC3C5)C4)nc2n(CCC)c1=O ? Thanks! 60

Could you please provide reported Population Mitotic Cells (%) for Cc1cc2c(cc1N1C(=O)c3cccc4c(CCCO)ccc(c34)C1=O)n(C)c(=O)n2C ? Thanks! 60

Could you please provide reported Population Mitotic Cells (%) for c1ccc2oc(-c3csc(C4CCN(Cc5nc6ncccc6[nH]5)CC4)n3)cc2c1 ? Thanks! 75

Could you please provide reported Population Mitotic Cells (%) for CNc1oc(-c2cccc3ccccc23)nc1C#N ? Thanks! 75
